test system: K562; assay: NCI tumour cell line growth inhibition, 48 h
Active and inactive are the calls of the source. Cut-off read from the data, not from the text of the source: active = GI50 up to about 1.1 µM and inactive = higher.
Can you answer with just one of these options? yes (1) for active, no (0) for inactive

Some solved entries appear below for comparison.
Just curious, what result did O=C(/N=N/C(=O)OCc1ccccc1)OCc1ccccc1 get here?
no (0)

For this compound, state the assay outcome: CCN(CC)C1=Nc2ccccc2-n2ccnc2C1
no (0)

Hello, I am checking results. What call was entered for C=C1C(=O)C[C@@]23CCC[C@@]12CC(O)C3 (stereo partly drawn) ?
no (0)

Each compound tested received a call. Report the one for C/C=C(C)/C=C/CC(C)CCC=C(C)C (stereo not drawn) .
no (0)

What classification did COC(=O)C1=C(C(=O)OC)C(N(C)C)C(C(=O)OC)=C(C(=O)OC)S1 end up with in this test?
no (0)

New cases:
Hi, sorry to bother you, what did the test record for CC(C)(C)c1ccc(O)c(C(O)c2cccnc2)c1 (stereo not drawn) ?
no (0)

What was the test verdict on CC1(C)OCC2OC3([C@H](O)CCO)OC(C)(C)OC3C2O1 (stereo partly drawn) ?
no (0)

What was the test verdict on O=C1c2cccnc2C(=O)C2C3C=CC(C3)C12 (stereo not drawn) ?
no (0)

Hi, sorry to bother you, what did the test record for CCOC(=O)c1ccc(N[C@@H]2c3cc4c(cc3C(c3cc(OC)c(O)c(OC)c3)[C@H]3C(=O)OCC32)OCO4)cc1O (stereo partly drawn) ?
yes (1)

How was O=C1CCC2(c3ccc(F)cc3)Nc3ncncc3N12 (stereo not drawn) classified in this test?
no (0)

I'd appreciate the recorded outcome for COc1ccc2nc(NC(=O)C(=O)C(C#N)c3ccc(Cl)c(Cl)c3)sc2c1 (stereo not drawn) from this test.
no (0)

Field: outcome | Entry: O=C1NC2(O)c3ccccc3C(=O)C2(O)N1c1ccccc1 (stereo not drawn)
no (0)

Outcome? COc1ccc(-n2cnn3c(=O)c4cn[nH]c4nc23)cc1
no (0)

I would be grateful if you could indicate the recorded call for N#Cc1c(O)c(/N=N/c2ccccc2F)c(=O)n2c1[nH]c1ccccc12 .
no (0)

Recorded call for O=C(O)c1nc2ccc(C(F)(F)F)cc2[nH]c1=O ?
no (0)

I'd appreciate the recorded outcome for O=C(Nc1cccc(C(F)(F)F)c1)C(=O)C(C(=O)c1ccc(Cl)c(Cl)c1)C1OC(=O)c2ccccc21 (stereo not drawn) from this test.
no (0)

What call does the record list for CC[S+]([O-])C(=O)N(O)c1ccc(Cl)cc1 (stereo not drawn) ?
no (0)

Tell me the recorded outcome of this test for O=[N+]([O-])c1ccc(C(O)/C(=N/O)c2nc3ccc(Cl)cc3nc2O)cc1 (stereo not drawn) .
no (0)

How was CN1COc2c(n(C)c(=O)[nH]c2=O)C1 classified in this test?
no (0)

Could you kindly confirm the outcome this assay logged for COc1ccc2c3c([nH]c2c1CC=C(C)C)C(=O)C=C(C)C3=O ?
no (0)

Test call, this compound: CC(C)=CCN1c2ccccc2[C@@]2(CC=C(C)C)CCN(C)[C@@H]12 [(+)-DEBROMOFLUSTRAMINE B]
no (0)

Hi team, can someone confirm the assay call for O=[PH]1c2ccccc2Nc2ccccc21 ?
no (0)

Please share the test call associated with Cc1c2ccnc(-c3ccccc3)c2cc2c1[nH]c1ccccc12 .
no (0)
